B1: NR2F2 (parent)
chain: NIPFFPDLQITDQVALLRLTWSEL

# Variants of: B1
# procedure-summary: protein stability index of a GFP-peptide fusion (GPS, HEK-293T) (PSI 1-6); higher = more stable;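 also: lentivirally expressed fusions sorted by FACS into six bins by GFP to DsRed ratio, PSI derived from sequencing read proportions per bin multiplied by bin number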
# run-parameters: c terminus: a fixed tail appended
Quick list: protein stability index per entry.

variant-descriptor	protein stability index
D12R	1.66
R18E	2.63
F5N	1.73
T11S	2.96
P3N	2.28
S22F	3.38
I10M	2.49
L16A	2.41
F5C	3.66
I2W	3.13
I2E	2.07
Q9D	2.5
W21V	2.4
L17W	1.92
P3L	1.92
W21Q	2.21
D7N	2.78
L16H	1.67
D7F	2.25
T20P	2.02
A15S	2
T20V	1.95
L16P	1.86
L16V	2.34
A15Y	1.67
N1E	2.36
N1M	3.01
R18M	2.28
T20Y	2.69
W21L	2.08
P6M	2.25
L19S	2.15
W21F	2.36
Q13R	1.92
D12V	4.16
